Reference for the values: patent US10654853B2

For each of the compounds below, state its pIC50.
experimental system: Cezanne 1 (Homo sapiens (Human), UniProt Q6GQQ9)
Sequence (Q6GQQ9 whole entry): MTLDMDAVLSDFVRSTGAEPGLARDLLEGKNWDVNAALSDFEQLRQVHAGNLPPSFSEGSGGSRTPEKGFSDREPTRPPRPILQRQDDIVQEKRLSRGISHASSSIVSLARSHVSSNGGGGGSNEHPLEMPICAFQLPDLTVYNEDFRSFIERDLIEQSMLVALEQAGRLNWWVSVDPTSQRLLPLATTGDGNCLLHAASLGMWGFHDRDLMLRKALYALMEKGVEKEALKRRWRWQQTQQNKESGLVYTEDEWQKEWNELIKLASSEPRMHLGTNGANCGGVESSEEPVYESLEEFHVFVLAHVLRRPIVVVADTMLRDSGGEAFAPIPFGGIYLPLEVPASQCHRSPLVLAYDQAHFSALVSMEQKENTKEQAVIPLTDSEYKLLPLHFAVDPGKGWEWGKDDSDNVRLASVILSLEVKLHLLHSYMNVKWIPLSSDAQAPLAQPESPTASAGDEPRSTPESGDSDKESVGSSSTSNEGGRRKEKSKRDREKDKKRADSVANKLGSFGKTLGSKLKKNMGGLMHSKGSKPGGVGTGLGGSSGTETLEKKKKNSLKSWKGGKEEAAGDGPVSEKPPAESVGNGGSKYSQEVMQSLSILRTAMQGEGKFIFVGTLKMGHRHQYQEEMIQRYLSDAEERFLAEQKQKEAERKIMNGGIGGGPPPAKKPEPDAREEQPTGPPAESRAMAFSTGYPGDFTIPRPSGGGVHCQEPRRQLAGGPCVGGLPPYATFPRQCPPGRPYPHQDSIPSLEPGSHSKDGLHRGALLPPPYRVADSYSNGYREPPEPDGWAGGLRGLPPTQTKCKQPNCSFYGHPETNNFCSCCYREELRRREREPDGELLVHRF
assay notes: Cezanne 1 biochemical IC50 assay (fluorescence polarisation, TAMRA labelled peptide linked to ubiquitin)
measurement setup: Cezanne 1 biochemical IC50 assay; 30 min pre-incubation, read after 2 hr at room temperature; read-out: IC50 range
pIC50: −log10 of the molar value.

Q) Param item = CC1CC2(CCN(C#N)C2)C(=O)N1 (single isomer, unassigned) [Example 82] ; retrieve measured pIC50.
A) < 5.00

Q) Field entry: N#CN1CCC2(Cc3ccc(-c4cccc5[nH]ncc45)cc3NC2=O)C1 (stereo not drawn)
A) 6.00 to 7.00

Q) Okay, and Cc1cc(-c2ccc3c(c2)CC2(CCN(C#N)C2)C(=O)N3)ccn1 (stereo not drawn) ?
A) 6.00 to 7.00

Q) N#CN1CCC2(C1)Oc1ncc(-c3ccccc3)cc1NC2=O (stereo not drawn) , same question.
A) 6.00 to 7.00

Below is a list of compounds. For each, state its recorded pIC50.
1. N#CN1CCC2(Cc3cc(-c4cccc(F)c4)ccc3NC2=O)C1 (stereo not drawn)
2. N#CN1CCC2(Cc3ccc(-c4ccc(Oc5ccccc5)cc4)cc3NC2=O)C1 (stereo not drawn)
3. CN(C)C(=O)c1cccc(-c2ccc3c(c2)CC2(CCN(C#N)C2)C(=O)N3)c1 (stereo not drawn)
4. N#CN1CC[C@@]2(C1)Nc1ncccc1NC2=O

A)
1: 6.00 to 7.00; 2: 5.00 to 6.00; 3: 6.00 to 7.00; 4: 6.00 to 7.00
